# measuredTarget: GST-Bfl-1 (Homo sapiens, UniProt Q16548)
# Construct: lacking their C-terminal transmembrane domains (about the last 20 amino acids) (“ΔTM”); made in house; host or cells: XL-1 Blue E. coli, pGEX 4T-1
# Sequence (Q16548 1-155 limits assumed): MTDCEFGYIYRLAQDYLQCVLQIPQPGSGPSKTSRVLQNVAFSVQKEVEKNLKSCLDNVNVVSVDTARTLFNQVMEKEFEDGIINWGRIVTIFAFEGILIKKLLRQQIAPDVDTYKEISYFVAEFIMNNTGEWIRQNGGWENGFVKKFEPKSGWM
# procedureDetails: Bfl-1/FITC-Bid BH3 competitive fluorescence polarization assay
# Assay type: binding
# assayContext: primary HTS hits, MLSCN library (PubChem SIDs), Table 5B
measure: FRatio

# count of solved cases: 3
[
  {
    "compound": "Oc1ccc(-c2cn3c(n2)SCC3)cc1O [Compound 14746201]",
    "FRatio": 0.91
  },
  {
    "compound": "COc1ccc(NC(=O)c2cnn3c(C(F)(F)F)cc(-c4ccco4)nc23)cc1OC [Compound 7974080]",
    "FRatio": 0.9
  },
  {
    "compound": "COc1ccc(N2C(=O)c3cccc4cccc(c34)C2=O)nn1 [Compound 4265126]",
    "FRatio": 0.88
  }
]

# context switch: different compound, same FRatio
Query block: Need FRatio of C=CCn1c(SCC(=O)c2ccc(O)c(O)c2)nnc1-c1ccccc1OC [Compound 863840] , thanks.
Result block: 0.88

###

# measuredTarget: GST-Bfl-1 (Homo sapiens, UniProt Q16548)
# Construct: lacking their C-terminal transmembrane domains (about the last 20 amino acids) (“ΔTM”); made in house; host or cells: XL-1 Blue E. coli, pGEX 4T-1
# procedureDetails: Bfl-1/FITC-Bid BH3 competitive fluorescence polarization assay
# Format: binding
# assayContext: primary HTS hits, MLSCN library (PubChem SIDs), Table 5B
Answer each item with its documented FRatio.
Numbers only.

Some solved entries appear below for comparison.
[
  {
    "moleculeSmiles": "O=C(c1cnccn1)N1CCc2ccccc21",
    "measure": "FRatio",
    "readoutNumber": 0.72
  },
  {
    "moleculeSmiles": "COc1ccc(OC)c(N2C(=O)[C@@H]3C(c4ccccc4Cl)=NO[C@@H]3C2=O)c1",
    "measure": "FRatio",
    "readoutNumber": 0.89
  },
  {
    "moleculeSmiles": "Cc1ccc(O)c(/N=C/C2=C(O)c3ccccc3C2=O)c1",
    "measure": "FRatio",
    "readoutNumber": 0.92
  }
]

Please find the next compound below.
Query block: Recorded FRatio of `CC(=O)c1c(CC(=O)O)nn(-c2nc3ccccc3s2)c1O` , please.
Result block: 0.7

###

# measuredTarget: GST-Bcl-B (Homo sapiens)
# Sequence (Q9HD36 1-182 limits assumed): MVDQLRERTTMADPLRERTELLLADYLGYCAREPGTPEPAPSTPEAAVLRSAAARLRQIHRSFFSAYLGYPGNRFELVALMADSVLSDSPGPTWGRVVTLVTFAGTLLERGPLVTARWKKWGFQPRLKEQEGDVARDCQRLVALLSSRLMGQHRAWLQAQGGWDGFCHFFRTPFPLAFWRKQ
# procedureDetails: Bcl-B/FITC-TR3-r8 fluorescence polarization competition (displacement) assay, HTS and dose-response
# assayContext: Table 8, NCI Structural library; Binding Assay, FP; Concentration 0.02 uM
measure: F Ratio
Give bare numbers.

[
  {
    "moleculeSmiles": "O=C1C(Cl)=C(Sc2nnc3c4ccccc4c4ccccc4c3n2)C(=O)c2ccccc21",
    "F Ratio": 0.2306
  },
  {
    "moleculeSmiles": "O=C(O)CCc1c2ccc(=O)c(O)c-2oc2c(O)c(O)ccc12",
    "F Ratio": 0.5317
  }
]

# per-item lookup of F Ratio; items listed below
1. CC(=O)O.CCN(CC)CC[n+]1ccc2c(C)c3[nH]c4ccc(O)cc4c3c(C)c2c1
2. O=S(=O)(O)c1ccc2c(/N=N/c3c(O)ccc4ccccc34)cccc2c1
3. CCc1c(O)c2c(c(O)c1C(C)=O)C(=O)c1c(cc(O)c(C(=O)O)c1C(=O)O)C2=O

Result block:
1: 0.7711; 2: 0.05945; 3: 0.1552

Entry source: patent US20090118135A1
